B1: LOXL2 (parent)
chain: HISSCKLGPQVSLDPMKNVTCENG

Variants of: B1
PROCEDURE_SUMMARY: protein stability index of a GFP-peptide fusion (GPS, HEK-293T) (PSI 1-6); higher = more stable;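 further: lentivirally expressed fusions sorted by FACS into six bins by GFP to DsRed ratio, PSI derived from sequencing read proportions per bin multiplied by bin number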
CONDITION_SUMMARY: c terminus: a fixed tail appended
Here the recorded protein stability index is given for each entry.
OBSERVABLE: protein stability index

mutation_code=V11W data_value=3.44
mutation_code=G8L data_value=4.02
mutation_code=D14W data_value=2.14
mutation_code=H1C data_value=3.73
mutation_code=E22L data_value=2.58
mutation_code=G8Y data_value=3.4
mutation_code=C21P data_value=4.17
mutation_code=M16S data_value=4.23
mutation_code=K6I data_value=3.57
mutation_code=E22C data_value=3.22
mutation_code=I2C data_value=3.44
mutation_code=P9S data_value=3.05
mutation_code=T20D data_value=4.4
mutation_code=S12A data_value=4.3
mutation_code=G24H data_value=3.94
mutation_code=N23L data_value=3.1
mutation_code=I2G data_value=4.53
mutation_code=K17N data_value=4.3
mutation_code=D14L data_value=3.22
mutation_code=N18C data_value=3.11
mutation_code=N23M data_value=3.26
mutation_code=L7K data_value=4.33
mutation_code=H1I data_value=2.63
mutation_code=L7D data_value=4.15
mutation_code=L13D data_value=4.34
mutation_code=L7F data_value=4.1
mutation_code=G8I data_value=3.86
mutation_code=C5A data_value=4.39
mutation_code=M16N data_value=4.61
mutation_code=P9A data_value=3.85
mutation_code=S4A data_value=3.65
mutation_code=G8A data_value=3.77
mutation_code=P9L data_value=2.84
mutation_code=M16R data_value=4.47
mutation_code=N18Y data_value=3.08
mutation_code=H1V data_value=3.72
mutation_code=S3A data_value=3.69
mutation_code=S4R data_value=3.52
mutation_code=I2M data_value=4.41
mutation_code=N18I data_value=3.4
mutation_code=V19H data_value=3.89
mutation_code=Q10S data_value=4.33
mutation_code=E22I data_value=2.92
mutation_code=L13R data_value=3.8
mutation_code=S4Q data_value=3.69
mutation_code=P15G data_value=3.93
mutation_code=Q10G data_value=4.53
mutation_code=E22F data_value=2.46
mutation_code=D14E data_value=4.12
mutation_code=P9Q data_value=3.87
mutation_code=H1T data_value=4.07
mutation_code=L7G data_value=4.76
mutation_code=I2V data_value=4.21
mutation_code=S12N data_value=3.9
